experimental system: HLA-B*35:01
assay comment: IEDB peptide-MHC binding, purified MHC/competitive/radioactivity; filed as Kd, often an IC50 or EC50 that approximates it; bounds were set here for any values at or beyond the usual limits of such assays
condition label: source organism: Vaccinia virus WR
pKd: −log10 of the molar value.

seq text: DPSERVFKKI
comparator: ≤
pKd: 4.16
--
seq text: SLTIKDSSNK
comparator: ≤
pKd: 4.33
--
seq text: RLYDYFTRV
comparator: ≤
pKd: 4.50
--
seq text: MPTYKHLIMF
comparator: =
pKd: 7.69
--
seq text: FPGDKTSYWV
comparator: =
pKd: 7.05
--
seq text: YPEYNRAVKF
comparator: =
pKd: 6.09
--
seq text: KTSTLIFFV
comparator: ≤
pKd: 4.45
--
seq text: SPYYIRKESY
comparator: =
pKd: 7.00
--
seq text: NPLFHGGEPI
comparator: =
pKd: 5.45
--
seq text: DPMVIENGI
comparator: =
pKd: 5.63
